pIC50 data for Prostaglandin G/H synthase 1 (Homo sapiens) follow.
Note: pIC50 values are expressed as the negative base-10 logarithm of concentration in M.

Worked cases, pIC50 given:
>  <structure>
Cc1ccc(OCC(=O)NNC(=O)/C=C/c2ccc(O)c(O)c2)c(C)c1

>  <tgt>
Prostaglandin G/H synthase 1 (Homo sapiens)
Sequence (P23219 whole entry): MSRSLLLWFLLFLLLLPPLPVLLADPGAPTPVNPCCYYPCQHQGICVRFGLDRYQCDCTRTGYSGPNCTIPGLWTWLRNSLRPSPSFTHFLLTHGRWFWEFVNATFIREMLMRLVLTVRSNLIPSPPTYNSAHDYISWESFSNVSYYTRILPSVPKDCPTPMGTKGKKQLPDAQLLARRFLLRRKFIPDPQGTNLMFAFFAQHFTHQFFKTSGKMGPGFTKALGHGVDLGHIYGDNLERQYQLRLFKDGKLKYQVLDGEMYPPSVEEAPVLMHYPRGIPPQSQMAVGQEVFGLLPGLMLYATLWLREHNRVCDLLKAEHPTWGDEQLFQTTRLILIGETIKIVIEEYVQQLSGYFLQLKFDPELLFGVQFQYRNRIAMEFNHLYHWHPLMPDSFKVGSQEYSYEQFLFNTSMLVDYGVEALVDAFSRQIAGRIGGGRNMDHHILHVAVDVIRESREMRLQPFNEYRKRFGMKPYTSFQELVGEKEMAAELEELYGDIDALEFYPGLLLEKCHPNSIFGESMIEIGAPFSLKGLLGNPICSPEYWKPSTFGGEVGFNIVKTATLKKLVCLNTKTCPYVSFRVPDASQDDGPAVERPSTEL

>  <pIC50>
3.97

$$$$
>  <structure>
O=C(/C=C/c1ccc(O)c(O)c1)NNC(=O)COc1cccc2cccnc12

>  <tgt>
Prostaglandin G/H synthase 1 (Homo sapiens)

>  <pIC50>
3.90

$$$$
>  <structure>
O=C(/C=C/c1ccc(O)c(O)c1)NNC(=O)COc1ccc(Br)cc1

>  <tgt>
Prostaglandin G/H synthase 1 (Homo sapiens)

>  <pIC50>
3.63

$$$$
>  <structure>
O=C(/C=C/c1ccc(O)c(O)c1)NNC(=O)COc1cccnc1

>  <tgt>
Prostaglandin G/H synthase 1 (Homo sapiens)

>  <pIC50>
3.74

$$$$

Turning now to a further record.
Record for O=C(/C=C/c1ccc(O)c(O)c1)NNC(=O)COc1ccc(Cl)cc1 under target or system Prostaglandin G/H synthase 1 (Homo sapiens): pIC50 reported as 3.67

---

Tested on: Mus musculus
Assay: Analgesic activity in Swiss albino mouse assessed as inhibition of acetic acid-induced writhing at 20 mg/kg, po administered 30 mins prior to acetic acid treatment and measured for 20 mins
Type: functional
Parameters: scale not given: the % may be the effect or the level left
Conditions: time 50 min
# if measured Activity < 60%: 1  # else: 0

>  <structure>
O=C(/C=C/c1ccc(O)c(O)c1)NNC(=O)COc1ccc2ccccc2c1

>  <class assignment>
0

$$$$
>  <structure>
Cc1ccc(OCC(=O)NNC(=O)/C=C/c2ccc(O)c(O)c2)c(C)c1

>  <class assignment>
1

$$$$
>  <structure>
O=C(/C=C/c1ccc(O)c(O)c1)NNC(=O)COc1cccc2cccnc12

>  <class assignment>
1

$$$$

Task: Record O=C(/C=C/c1ccc(O)c(O)c1)NNC(=O)COc1ccc(Br)cc1 : is its Activity strictly below 60%?
Output: 0

Task: Record O=C(/C=C/c1ccc(O)c(O)c1)NNC(=O)COc1ccc(Cl)cc1 : is its Activity strictly below 60%?
Output: 0

Task: Record Cc1ccc(-c2cc(C(F)(F)F)nn2-c2ccc(S(N)(=O)=O)cc2)cc1 : is its Activity strictly below 60%?
Output: 0

Task: Record Cc1ccc(OCC(=O)NNC(=O)/C=C/c2ccc(O)c(O)c2)cc1 : is its Activity strictly below 60%?
Output: 0

---

Assay: Acute toxicity in Swiss albino mouse assessed as survival at 100 mg/kg, po administered for 7 days and observed for 14 days
Type: organism-based
Conditions: in vivo, 336 h, time 14 day
observable: Activity

Worked cases, Activity given:
>  <structure>
O=C(/C=C/c1ccc(O)c(O)c1)NNC(=O)COc1cccc2ccccc12

>  <Activity>
Non-Toxic

$$$$
>  <structure>
Cc1ccc(OCC(=O)NNC(=O)/C=C/c2ccc(O)c(O)c2)c(C)c1

>  <Activity>
Non-Toxic

$$$$
>  <structure>
Cc1ccc(OCC(=O)NNC(=O)/C=C/c2ccc(O)c(O)c2)cc1

>  <Activity>
Non-Toxic

$$$$
>  <structure>
O=C(/C=C/c1ccc(O)c(O)c1)NNC(=O)COc1cccnc1

>  <Activity>
Non-Toxic

$$$$
>  <structure>
O=C(/C=C/c1ccc(O)c(O)c1)NNC(=O)COc1ccc(Cl)cc1

>  <Activity>
Non-Toxic

$$$$

Turning now to a further record.
Measured Activity, Cc1ccccc1OCC(=O)NNC(=O)/C=C/c1ccc(O)c(O)c1 : Non-Toxic

Data provenance: ChEMBL document CHEMBL4673359
